# target_desc: CDK1/Cyclin B1 (Homo sapiens)
# Construct: GST
# assay_overview: CDK1/Cyclin B1 enzymatic phosphorylation assay (Caliper mobility shift)
# recorded_conditions: read-out: Enzyme CDK1/cyclin B1 IC50
This section presents compounds with their documented pIC50 values.
Please treat pIC50 as minus the base-10 logarithm of the molar concentration.

Query: Identify measured pIC50 associated with c1nc2cnn(CC3CCOCC3)c2nc1Nc1cc(C2CC2)[nH]n1
Result: 7.08

###

# target_desc: CDK1/Cyclin B1 (Homo sapiens, UniProt P06493)
# Construct: GST; purchased BPS 40454
# Sequence (P06493 whole entry): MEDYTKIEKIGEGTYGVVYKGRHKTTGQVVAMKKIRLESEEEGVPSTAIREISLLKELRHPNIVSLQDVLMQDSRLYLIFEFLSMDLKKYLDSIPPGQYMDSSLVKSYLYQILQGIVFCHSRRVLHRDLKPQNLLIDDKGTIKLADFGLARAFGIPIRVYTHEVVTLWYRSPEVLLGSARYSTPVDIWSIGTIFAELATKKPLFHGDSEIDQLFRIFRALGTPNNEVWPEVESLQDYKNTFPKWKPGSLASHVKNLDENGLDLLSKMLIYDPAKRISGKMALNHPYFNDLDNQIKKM
# Sequence (P14635 whole entry partner): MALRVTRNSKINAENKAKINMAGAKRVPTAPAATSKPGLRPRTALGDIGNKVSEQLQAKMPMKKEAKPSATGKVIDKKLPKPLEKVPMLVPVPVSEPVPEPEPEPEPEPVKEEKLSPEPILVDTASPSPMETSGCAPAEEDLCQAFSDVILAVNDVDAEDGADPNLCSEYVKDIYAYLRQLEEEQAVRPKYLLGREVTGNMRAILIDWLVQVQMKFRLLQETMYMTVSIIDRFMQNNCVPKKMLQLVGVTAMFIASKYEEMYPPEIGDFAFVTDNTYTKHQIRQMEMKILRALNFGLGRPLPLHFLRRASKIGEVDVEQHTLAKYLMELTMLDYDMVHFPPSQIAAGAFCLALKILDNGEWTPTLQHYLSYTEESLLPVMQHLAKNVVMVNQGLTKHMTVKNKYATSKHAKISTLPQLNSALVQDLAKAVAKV
# assay_overview: CDK1/Cyclin B1 enzymatic phosphorylation assay (Caliper mobility shift)
# Format: biochemical
# recorded_conditions: read-out: Enzyme CDK1/cyclin B1 IC50
Using IC50 as the sorting value, the categories are low value (below 1 µM), medium value (1 µM to below 2 µM), high value (2 µM or more)

Below, 5 molecules whose answers are already recorded.
C[C@@H](c1ccccn1)n1ncc2ncc(Nc3cc(C#N)[nH]n3)nc21 = high value
Fc1ccccc1Cn1ncc2ncc(Nc3cc(C4COC4)[nH]n3)nc21 = medium value
C[C@@H](c1ccc(F)cc1)n1ncc2ncc(Nc3cc(C4COC4)[nH]n3)nc21 = low value
c1ccc(Cn2ncc3ncc(Nc4cc(C5COC5)[nH]n4)nc32)cc1 = high value
Fc1cccc(Cn2ncc3ncc(Nc4cc(C5COC5)[nH]n4)nc32)c1 = medium value

Query: Please report the category associated with C[C@@H](c1cccc(F)c1)n1ncc2ncc(Nc3cc(C4COC4)[nH]n3)nc21 , nothing else.
Result: low value

Query: Band for the recorded IC50 of Cc1cc(Nc2cnc3cnn([C@@H](C)c4cc(F)ccn4)c3n2)n[nH]1 (single isomer, unassigned) ?
Result: medium value

Query: Lab note: which band did CC(C)c1cc(Nc2cnc3cnn(CCCO)c3n2)n[nH]1 land in?
Result: high value

Query: Place this molecule in its band: Cc1cc(Nc2cnc3cnn([C@@H](C)C4CCOCC4)c3n2)n[nH]1
Result: high value

Query: Band of C[C@@H](c1ccccn1)n1ncc2ncc(Nc3cc(C4COC4)[nH]n3)nc21 ?
Result: low value
